Exercise: state measured IC50 for each of the molecules provided.
Tested on: 922993-354-T-J3-PDC complex spheroids, viability;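 also: spheroids exposed to compounds for seven days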
Test summary: Anticancer human tumor 922993-354-T-J3-PDC patient-derived endometrial carcinoma cell line growth inhibition [GQUAD]
Reported conditions: curve of first compound; second compound 1 µM

Provide IC50 value for the following molecule: CC(C)(O)C1CCC(Nc2ccc3ncc(-c4cccc(C(F)(F)F)c4)n3n2)CC1 (stereo not drawn) + Cc1cnc(CNC(=O)c2c(=O)c3ccc(N4CCCN(C)CC4)nc3n3c2sc2ccccc23)cn1
< 31.6 nM

Read off the recorded IC50 for COc1ncnc(C2CC2)c1-c1ncc2cnn(Cc3ccc(-c4nc(C(F)(F)F)cn4C(C)C)cc3)c2n1 + Cc1[nH]c2ccc(F)cc2c1-c1nc2c3cccnc3c3ncccc3c2[nH]1
> 10000 nM

Fill in IC50 for record CC(=O)O[C@H]1C(=O)[C@@]2(C)[C@H]([C@H](OC(=O)c3ccccc3)[C@]3(O)C[C@H](OC(=O)[C@H](O)[C@@H](NC(=O)c4ccccc4)c4ccccc4)C(C)=C1C3(C)C)[C@]1(OC(C)=O)CO[C@@H]1C[C@@H]2O + Cc1cnc(CNC(=O)c2c(=O)c3ccc(N4CCCN(C)CC4)nc3n3c2sc2ccccc23)cn1
< 31.6 nM
